# EC50 annotations
# TARGET ENTITY: GPR84 (Homo sapiens, UniProt Q9NQS5)
# Sequence (Q9NQS5 whole entry): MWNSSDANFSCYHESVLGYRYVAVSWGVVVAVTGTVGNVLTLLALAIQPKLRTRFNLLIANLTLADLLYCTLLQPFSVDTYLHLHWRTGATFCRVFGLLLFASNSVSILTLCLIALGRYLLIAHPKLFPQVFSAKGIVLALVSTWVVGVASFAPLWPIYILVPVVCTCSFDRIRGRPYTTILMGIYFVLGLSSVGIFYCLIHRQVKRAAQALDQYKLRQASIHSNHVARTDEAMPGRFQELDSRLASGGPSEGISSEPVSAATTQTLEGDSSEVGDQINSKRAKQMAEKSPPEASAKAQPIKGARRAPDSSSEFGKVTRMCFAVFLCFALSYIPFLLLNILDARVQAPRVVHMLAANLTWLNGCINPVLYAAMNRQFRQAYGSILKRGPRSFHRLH
# TEST DETAILS: CHO-K1-based HitHunter cAMP inhibition assay
# Type: cell-based
# CONDITION DESCRIPTION: wild type GPR84; CHO-K1 cells; forskolin 25 μM; read-out: cAMP pEC50 ± SEM (converted)
# Procedure: CHO-K1 cells stably expressing human GPR84 (DiscoverX 95-0158C2) were seeded in 384-well plates at 15,000 cells per well in 20 μL of F12 medium supplemented with 10% fetal bovine serum (FBS), 19 mM HEPES, and 1% penicillin-streptomycin. […] Compounds were dissolved in DMSO and diluted appropriately. cAMP levels were quantified using the HitHunter® cAMP Assay for Small Molecules (DiscoverX 90-0075SM2) according to the manufacturer’s protocol. […]
REPORTED ENDPOINT: EC50 (nM)

INSERT INTO assay_data (smiles_code, target_entity, reported_endpoint, observed_value) VALUES
  ('[O-][n+]1cc(O)cc(CCCCc2ccc(Cl)c(Cl)c2)c1', 'GPR84 (Homo sapiens, UniProt Q9NQS5)', 'EC50', 0.0389),
  ('CC(C)c1cc(CCCCc2cc(O)c[n+]([O-])c2)ccc1Cl', 'GPR84 (Homo sapiens, UniProt Q9NQS5)', 'EC50', 0.0145),
  ('[O-][n+]1cc(O)cc(CCCCc2ccc(Cl)c(F)c2)c1', 'GPR84 (Homo sapiens, UniProt Q9NQS5)', 'EC50', 0.0407);

====

# Emax annotations
# TARGET ENTITY: GPR84 (Homo sapiens)
# TEST DETAILS: CHO-K1-based PathHunter β-arrestin-2 recruitment assay
# Type: cell-based
# Design: host or cells: CHO-K1
# CONDITION DESCRIPTION: read-out: β-arrestin-2 %Emax ± SEM
REPORTED ENDPOINT: Emax (%)

INSERT INTO results (compound, reported_endpoint, observed_value) VALUES
  ('[O-][n+]1cc(O)cc(CCCCc2ccc(Cl)c(CO)c2)c1 [OX04955]', 'Emax', 21),
  ('Cc1cc(CCCc2cc(O)c[n+]([O-])c2)ccc1Cl [OX04954]', 'Emax', 71),
  ('C#Cc1cc(CCCCc2cc(O)c[n+]([O-])c2)ccc1Cl [OX04963]', 'Emax', 15),
  ('[O-][n+]1cc(O)cc(CCCCc2ccc(Cl)cc2)c1 [OX04540]', 'Emax', 81),
  ('CCCCCCCc1cc(O)c[n+]([O-])c1 [OX04539]', 'Emax', 100),
  ('C=Cc1cc(CCCCc2cc(O)c[n+]([O-])c2)ccc1Cl [OX04962]', 'Emax', 18),
  ('[O-][n+]1cc(O)cc(CCCCc2ccc(Cl)c(F)c2)c1 [OX04958]', 'Emax', 72),
  ('CCc1cc(CCCCc2cc(O)c[n+]([O-])c2)ccc1Cl [OX04961]', 'Emax', 21),
  ('[O-][n+]1cc(O)cc(CCCCc2ccc(Cl)c(C3CC3)c2)c1 [OX04965]', 'Emax', 9);
